# maps each entry to its EC50
Test system: HCV 1b genotype
Experiment: HCV Replicon assay (HCV 1b genotype)
Type: cell-based
Settings: Hepatitis C virus; HCV 1b genotype replicon; read-out: EC50

SAMPLE_SMILES	EC50
COC(=O)N[C@H](C(=O)N1[C@@H](C)CC[C@H]1c1ncc(-c2ccc(-c3ccc4cc(-c5cnc([C@@H]6CC[C@H](C)N6C(=O)[C@@H](NC(=O)OC)C6CCC(F)(F)CC6)[nH]5)ccc4c3)cc2)[nH]1)C1CCC(F)(F)CC1	0.00211 nM
COC(=O)N[C@H](C(=O)N1CCC[C@@H]1c1nc2ncc(-c3ccc4cc(-c5cnc6nc([C@@H]7CCCN7C(=O)[C@@H](NC(=O)OC)C(C)C)[nH]c6c5)ccc4c3)cc2[nH]1)C(C)C	0.888 nM
COC(=O)N[C@H](C(=O)N1[C@@H]2C[C@@H]2C[C@H]1c1nc2ccc(-c3ccc4nc(-c5ccc6nc([C@@H]7C[C@H]8C[C@H]8N7C(=O)[C@@H](NC(=O)OC)C7CCOCC7)[nH]c6c5)cnc4c3)cc2[nH]1)C1CCOCC1	0.0421 nM
COC(=O)N[C@H](C(=O)N(C)[C@@H](C)c1ncc(-c2ccc(-c3ccc4cc(-c5cnc([C@H](C)N(C)C(=O)[C@@H](NC(=O)OC)C(C)C)[nH]5)ccc4c3)cc2)[nH]1)C(C)C	0.654 nM
